# Test system: CEM cells HIV-1 protection, formazan growth assay
# ASSAY REMARKS: NCI AIDS Antiviral Assay
# MEASUREMENT CONDITIONS: measured here: growth of uninfected CEM cells
pIC50: −log10 of the molar value.
Classify by measured pIC50: YES if it is equal to or exceeds 4, NO if it is smaller.

Solved entries (count: 3):
Exam item: Decide: pIC50 of O=C(NNc1nc(-c2ccccc2)cs1)C(F)(F)F >= 4?
Marked response: YES

Exam item: Input CCCCCCCCCCCCCCCC(=O)OCC1OC(OC)C(NC(=O)N(CCCl)N=O)C(O)C1O (centres undefined)
Marked response: YES

Exam item: Try the compound CC(C)[C@H]1CO[C@@H]2O[C@H](C)C(C)C(=O)N21 (some centres undefined)
Marked response: NO

New cases:
Exam item: Dear colleague, could you confirm whether O=C(CCCC[n+]1ccccc1)Sc1ccccc1C(=O)Nc1ccc(S(=O)(=O)Nc2ncccn2)cc1 has pIC50 at or above 4?
Marked response: YES

Exam item: Subsequent entry: Nc1ccccc1[S][Sn]([c]1ccccc1)([c]1ccccc1)[c]1ccccc1
Marked response: YES

Exam item: Same lookup for Nc1ccc(N=Nc2ccc(N=Nc3c(S(=O)(=O)O)cc4cc(S(=O)(=O)O)c(N=Nc5ccc(N=Nc6ccc(N)cc6N)cc5)c(O)c4c3N)cc2)c(N)c1 , please.
Marked response: YES

Exam item: Likewise for CCOC(=O)NC(NCC(O)c1ccccc1)(C(F)(F)F)C(F)(F)F (centres undefined) ?
Marked response: NO

###

# System: CEM cells HIV-1 protection, formazan growth assay
# ASSAY REMARKS: NCI AIDS Antiviral Assay
# MEASUREMENT CONDITIONS: measured here: growth of uninfected CEM cells
ENDPOINT: IC50 (µM)
Your answer is read as µM, so omit the unit and give the number.

Check out these entries, answers already filled in.
Exam item: // fetch CEM cells HIV-1 protection, formazan growth assay IC50 for C/C(CC(=O)Nc1ccc(C)c(C)c1)=N\NC(N)=S
Marked response: 117

Exam item: Ok, now Cc1cc(C)nc(NS(=O)(=O)c2ccc(NN=c3c4ccccc4n(C)c4ccccc34)cc2)n1
Marked response: 11.2

Exam item: Subsequent entry: CC(/C=C/c1ccccc1Cl)=N\C(=S)NC(N)=S
Marked response: 20.9

Exam item: Entry CC(=O)OCc1cc(=O)n(C)c2c3c4c(cc12)c(C)cc(=O)n4CO3 please
Marked response: 1.26

Exam item: Can you handle CCOC(=O)C(=Cc1cccc(F)c1)C(=O)OCC next?
Marked response: 22.4

More entries:
Exam item: Tell me reported IC50 for O=C(Nc1c(NCC(O)C(O)C(O)CO)[nH]c(=O)[nH]c1=O)c1ccc(S(=O)(=O)F)cc1 (stereo not drawn) , tested with CEM cells HIV-1 protection, formazan growth assay.
Marked response: 117

Exam item: Next record, please: CN1N=C(c2ccccc2)C(C(c2ccccc2[N+](=O)[O-])C2C(=O)N(C)N=C2c2ccccc2)C1=O (stereo not drawn)
Marked response: 15.8

Exam item: Also check S=C(NC1CCCCC1)SSSC(=S)NC1CCCCC1
Marked response: 27.5

Exam item: Same lookup for Cn1c(=O)oc2cc(C(O)CN3CCN(Cc4ccccn4)CC3)c(Cl)cc21 (stereo not drawn) , please.
Marked response: 195

Exam item: And what about the compound OC(CCN1CCOCC1)c1ccc(Sc2ccccc2)cc1 (stereo not drawn) ?
Marked response: 36.3
